Every entry's value here was drawn from PubChem BioAssay (NCI).

System: NCI-H460 lung
Experiment: NCI-60 one-dose screen, 48 h (100 = growth as untreated, 0 = no growth, -100 = all killed)
Conditions: 10 µM unless noted
About 83,000 compounds went through this panel and 20% of them were active in at least one assay; those are over-represented in the sample as a whole.
Assign labels as follows, please: true for growth below 10%; false for growth equal to or exceeding 10%.

{"MOLECULE": "Cn1cc(NC(=O)c2cc(NC(=O)c3ccc(/C=C/c4ccccc4)cc3)cn2C)cc1C(=O)NCCCN1CCOCC1", "CAT": "true"}
{"MOLECULE": "CCOP(=O)(OCCCl)c1nc(-c2ccc(C)cc2)oc1NCc1ccccc1 (stereo unspecified)", "CAT": "false"}
{"MOLECULE": "O=C1Nc2cc(Cl)ccc2/C1=C/c1cccc(OCc2ccccn2)c1", "CAT": "false"}
{"MOLECULE": "COc1ccc(-c2nc3cc(C)ccc3n2CC(=O)N=Nc2c(O)[nH]c3ccc(Br)cc23)cc1", "CAT": "true"}
{"MOLECULE": "Cn1cc(-c2cc3nc(-c4cn(C)c5ncc(Br)cc45)cc(N)n3n2)c2ccccc21", "CAT": "true"}
{"MOLECULE": "CC(=O)Nc1ccc(-n2cnc3cc(-c4ccc(O)cc4)ccc32)cc1C(F)(F)F", "CAT": "true"}
{"MOLECULE": "O=C1C(=Nc2ccc(F)c(Cl)c2)c2cccc3cccc1c23", "CAT": "false"}
{"MOLECULE": "CCS(=O)(=O)N1CCCC(C(=O)Nc2nc3ccc(NC(=O)c4ccc(F)c(OC)c4F)cc3s2)C1 (stereo unspecified)", "CAT": "false"}
{"MOLECULE": "Cc1cccc(NC(=O)[C@]23CCC(C)(C)CC2C2=CCC4[C@@]5(C)C[C@@H](O)[C@H](O)[C@@](C)(CO)C5CC[C@@]4(C)[C@]2(C)CC3)c1 (stereo partly specified)", "CAT": "true"}
{"MOLECULE": "O=c1cc(-c2ccccc2)oc2cc(OCCCC[P+](c3ccccc3)(c3ccccc3)c3ccccc3)cc(O)c12", "CAT": "true"}
{"MOLECULE": "O=C(c1ccccc1)C(c1c[nH]c2ccccc12)c1c[nH]c2ccccc12", "CAT": "false"}

====

Recorded measurements of growth, one per entry
Test system: OVCAR-4 ovarian
Assay: NCI-60 one-dose screen, 48 h (100 = growth as untreated, 0 = no growth, -100 = all killed)
Conditions: 10 µM unless noted
This is part of a sample that, as a whole, favours compounds with a hit. Of some 83,000 tested, about 20% had one in any assay.

{"SMILES": "O=C(c1ccc(Cl)cc1)c1ccc(OCCCN2CCN(c3ccncc3)CC2)cc1", "growth (%)": 47.3}
{"SMILES": "Cn1cc(-c2cc3nc(-c4cn(C)c5ncccc45)cc(N)n3n2)c2cc(Cl)ccc21", "growth (%)": -16.5}
{"SMILES": "CC(=O)NNc1ccc2nnc(-c3ccccc3)n2n1", "growth (%)": 109}
{"SMILES": "O=C(COc1ccc(NC(=O)Nc2ccc(Cl)c(Cl)c2)cc1)N=Nc1c(O)[nH]c2ccc(Br)cc12", "growth (%)": -27}
{"SMILES": "COc1cccc(-c2nc(Nc3ccc(S(N)(=O)=O)cc3)c3ccccc3n2)c1", "growth (%)": 35.1}

====

Recorded measurements of growth, one per entry
System: NCI/ADR-RES ovarian
Test: NCI-60 one-dose screen, 48 h (100 = growth as untreated, 0 = no growth, -100 = all killed)
Conditions: 10 µM unless noted
This is part of a sample that, as a whole, favours compounds with a hit. Of some 83,000 tested, about 20% had one in any assay. Calls of active or inactive are those of the source. The calls were made as follows: active = growth percent below 10; inactive = the rest.
PROPERTY_LABEL: growth

{"COMPOUND": "O=C(COc1ccc(NC(=O)Nc2ccc(Cl)cc2)cc1)N/N=C/c1ccccc1", "PROPERTY_LABEL": "growth", "RECORDED_MEASUREMENT": "-10.9% (active)"}
{"COMPOUND": "CSc1ccccc1NC(=O)c1ccc2nnn(/C(C#N)=C/c3ccccn3)c2c1", "PROPERTY_LABEL": "growth", "RECORDED_MEASUREMENT": "-44.2% (active)"}
{"COMPOUND": "O=C(O)c1cccc(-c2ccc(/C=N/NC(=O)c3[nH]c4ccc(Br)cc4c3-c3ccccc3)s2)c1", "PROPERTY_LABEL": "growth", "RECORDED_MEASUREMENT": "-22.5% (active)"}
{"COMPOUND": "Nc1nc(-c2ccccc2)c(N=Nc2ccc([N+](=O)[O-])cc2Cl)s1", "PROPERTY_LABEL": "growth", "RECORDED_MEASUREMENT": "89.6% (inactive)"}
{"COMPOUND": "C#CCOc1cc(N(CC)CC)ccc1C(C(=O)NC(C)(C)C)N(C(=O)C1CCc2cc(F)ccc2O1)c1ccc(Br)cc1 (centres undefined)", "PROPERTY_LABEL": "growth", "RECORDED_MEASUREMENT": "89.4% (inactive)"}
{"COMPOUND": "Cc1ccc(-c2nc(C#N)c(S(=O)(=O)N3CCN(S(=O)(=O)c4ccccc4)CC3)o2)cc1", "PROPERTY_LABEL": "growth", "RECORDED_MEASUREMENT": "4.76% (active)"}
{"COMPOUND": "Cc1cc(C)n(-c2ccc3nnc(-c4ccccc4)n3n2)n1", "PROPERTY_LABEL": "growth", "RECORDED_MEASUREMENT": "76.1% (inactive)"}
{"COMPOUND": "Cn1cc(-c2cc(N)n3nc(-c4cn(C)c5ncccc45)cc3n2)c2cccnc21", "PROPERTY_LABEL": "growth", "RECORDED_MEASUREMENT": "68.6% (inactive)"}
{"COMPOUND": "CC1(C)CC[C@]2(C(=O)O)CC[C@]3(C)C(=CCC4[C@@]5(C)C[C@@H](O)[C@@H]6OC(c7cccc(Br)c7)OC[C@@]6(C)C5CC[C@]43C)C2C1 (some centres undefined)", "PROPERTY_LABEL": "growth", "RECORDED_MEASUREMENT": "40.6% (inactive)"}

====

Test system: ACHN renal
Assay: NCI-60 one-dose screen, 48 h
Settings: 10 µM unless noted
About 83,000 compounds went through this panel and 20% of them were active in at least one assay; those are over-represented in the sample as a whole. The source made the active and inactive calls. The calls were made as follows: active = growth percent below 10; inactive = the rest.
Outcome codes: 1 = active, 0 = inactive

{"MOLECULE": "CC(=O)OC[C@@]1(C)C2CC[C@]3(C)C(CC=C4C5CC(C)(C)CC[C@]5(C(=O)Nc5ccc(F)cc5)CC[C@]43C)[C@@]2(C)C[C@@H](OC(C)=O)[C@@H]1OC(C)=O (some centres undefined)", "TEST_SYSTEM": "ACHN renal", "CAT": 0}
{"MOLECULE": "Cc1ccc2c(N)c(C(=O)Nc3ccc(-c4ccccc4)cc3)sc2n1", "TEST_SYSTEM": "ACHN renal", "CAT": 0}
{"MOLECULE": "Cn1cc(-c2cc3nc(-c4cn(C)c5ncc(Br)cc45)cc(N)n3n2)c2cc(Cl)ccc21", "TEST_SYSTEM": "ACHN renal", "CAT": 1}
{"MOLECULE": "COc1ccc(C(=O)Nc2n[nH]c(Nc3ccccc3)c2C#N)cc1", "TEST_SYSTEM": "ACHN renal", "CAT": 0}
{"MOLECULE": "CCS(=O)(=O)N1CCCC(C(=O)Nc2nc3ccc(NC(=O)c4ccc(F)c(OC)c4F)cc3s2)C1 (centres undefined)", "TEST_SYSTEM": "ACHN renal", "CAT": 0}
{"MOLECULE": "Nc1nc(C(F)(F)F)cs1", "TEST_SYSTEM": "ACHN renal", "CAT": 0}
{"MOLECULE": "COc1ccc2c(c1)c(-c1cc3nc(-c4cn(C)c5ncccc45)cc(N)n3n1)cn2C", "TEST_SYSTEM": "ACHN renal", "CAT": 1}
{"MOLECULE": "CCN(CC)c1ccc(/C=N/Nc2nc(-c3ccc(Br)cc3)cs2)c(O)c1", "TEST_SYSTEM": "ACHN renal", "CAT": 0}
{"MOLECULE": "COc1ccc(C(=O)/C=C/c2cccc(Cl)c2Cl)cc1S(N)(=O)=O", "TEST_SYSTEM": "ACHN renal", "CAT": 1}

====

Test system: HCC-2998 colon
Assay: NCI-60 one-dose screen, 48 h
Details: 10 µM unless noted
Procedure: Growth inhibition of the HCC-2998 human tumor cell line is measured as a screen for anti-cancer activity. Cells are grown in 96 well plates and exposed to the test compound for 48 hours. Compounds are tested at a single concentration, which is 10^-5 M for most compounds. The reported endpoint is percent growth (GI% or GIPRCNT), where numbers from 0 - 100% represent growth inhibition, and numbers from -100% - 0 represent cell death. For example, a value of 40 represents 60% growth inhibition. […]
The panel holds about 83,000 compounds, 20% with a hit somewhere; the sample as a whole holds those more often. The source made the active and inactive calls. The calls were made as follows: active = growth percent below 10; inactive = the rest.
Outcome codes: Yes for active, No for inactive

{"COMPOUND": "CC12CC[C@@H]3[C@]4(C)COC(c5c(F)cccc5F)O[C@@H]4CC[C@@]3(C)[C@@H]1CC(C1=CCOC1=O)O2 (some centres undefined)", "TEST_SYSTEM": "HCC-2998 colon", "CAT": "No"}
{"COMPOUND": "Cc1ccccc1[C@H]1C(C(=O)c2ccc(Cl)cc2)C2(N[C@@H]1c1ccccc1)C(=O)Nc1ccc(Br)cc12 (some centres undefined)", "TEST_SYSTEM": "HCC-2998 colon", "CAT": "Yes"}
{"COMPOUND": "Cc1ccc(-c2nc(C#N)c(S(=O)(=O)N3CCN(S(=O)(=O)c4ccc(Cl)cc4)CC3)o2)cc1", "TEST_SYSTEM": "HCC-2998 colon", "CAT": "No"}
{"COMPOUND": "CN(C)CCCNC(=O)c1cc(NC(=O)c2cc(NC(=O)c3ccc(/C=C/c4ccccc4)cc3)cn2C)cn1C", "TEST_SYSTEM": "HCC-2998 colon", "CAT": "No"}
{"COMPOUND": "N#Cc1ccc(C(=O)Nn2c(N)cc3ccccc3c2=O)cc1", "TEST_SYSTEM": "HCC-2998 colon", "CAT": "No"}
{"COMPOUND": "O=C(/C=C/c1cccc(OCc2ccccc2)c1)c1nc2ccccc2[nH]1", "TEST_SYSTEM": "HCC-2998 colon", "CAT": "Yes"}
{"COMPOUND": "COc1ccc2cc([C@H](C)C(=O)N/N=C/c3ccc(Br)cc3)ccc2c1", "TEST_SYSTEM": "HCC-2998 colon", "CAT": "No"}
{"COMPOUND": "N#Cc1c(-c2cccc3ccccc23)cc(-c2cccc(OCC(=O)O)c2)[nH]c1=O", "TEST_SYSTEM": "HCC-2998 colon", "CAT": "No"}
{"COMPOUND": "COc1ccc(C2=NN(c3ccccc3)C(c3ccc(OCc4ccccc4)c(OC)c3)C2)cc1OC (centres undefined)", "TEST_SYSTEM": "HCC-2998 colon", "CAT": "No"}
{"COMPOUND": "COc1cc(-c2cc(-c3cccc(OCC(=O)O)c3)[nH]c(=O)c2C#N)cc(OC)c1OC", "TEST_SYSTEM": "HCC-2998 colon", "CAT": "No"}
{"COMPOUND": "COc1ccc(C(=O)/C=C/c2cccc3ccccc23)cc1S(N)(=O)=O", "TEST_SYSTEM": "HCC-2998 colon", "CAT": "Yes"}
{"COMPOUND": "CC(=O)c1cc(C(=O)c2ccccc2)n2c1ccc1ccccc12", "TEST_SYSTEM": "HCC-2998 colon", "CAT": "No"}
{"COMPOUND": "O=C(NNc1ccccc1)n1c(=O)c2ccccc2c(=O)n1-c1ccccc1", "TEST_SYSTEM": "HCC-2998 colon", "CAT": "No"}
{"COMPOUND": "O=C(C1=CNC(=S)NC1c1ccc(O)cc1)c1cc2ccccc2oc1=O (centres undefined)", "TEST_SYSTEM": "HCC-2998 colon", "CAT": "No"}
{"COMPOUND": "COc1ccc(NC(=O)Cn2c(O)c(N=Nc3ccc(S(N)(=O)=O)cc3)c3ccccc32)cc1", "TEST_SYSTEM": "HCC-2998 colon", "CAT": "No"}
{"COMPOUND": "Cn1cc(-c2nc(N)nnc2-c2c[nH]c3ccc(Br)cc23)c2cc(Br)cnc21", "TEST_SYSTEM": "HCC-2998 colon", "CAT": "Yes"}
{"COMPOUND": "CC(=O)Nc1ccc(-n2cnc3ccc(-c4ccc(O)cc4)cc32)cc1", "TEST_SYSTEM": "HCC-2998 colon", "CAT": "No"}
{"COMPOUND": "COc1c(F)ccc(C(=O)Nc2ccc3nc(NC(=O)C4CCCN(S(=O)(=O)c5ccc(Br)c(F)c5)C4)sc3c2)c1F (centres undefined)", "TEST_SYSTEM": "HCC-2998 colon", "CAT": "No"}
{"COMPOUND": "COc1ccc(-c2c(Nn3cnnn3)no[n+]2[O-])cc1", "TEST_SYSTEM": "HCC-2998 colon", "CAT": "No"}
